experimental_details: Apparent permeability from apical to basolateral side in MDCK cells expressing human MDR1
Type: ADME, cell-based, Canis lupus familiaris
condition_info: dog
experimental_readout: Papp A→B
Report as: number unit

Record request: Papp A→B value, item `CCn1ccc(NC(=O)c2cc(Oc3ccc(C(=O)N4CCC4)cc3)cc(O[C@@H](C)CO)c2)n1`
1.6 ×10⁻⁶ cm/s

Record request: Papp A→B value, item `COC[C@H](C)Oc1cc(Oc2ccc(C(=O)N3CCC3)nc2)cc(C(=O)Nc2cnc(C)cn2)c1`
18 ×10⁻⁶ cm/s

Record request: Papp A→B value, item `COC[C@H](C)Oc1cc(Oc2ccc(C(=O)N3CCC3)cc2)cc(C(=O)Nc2cnc(C)cn2)c1`
29 ×10⁻⁶ cm/s

Record request: Papp A→B value, item `Cc1cnc(NC(=O)c2cc(Oc3ccc(C(=O)N4CCC4)cc3)cc(O[C@@H](C)CO)c2)cn1`
4.1 ×10⁻⁶ cm/s

Record request: Papp A→B value, item `Cn1ccc(NC(=O)c2cc(Oc3ccc(C(=O)N4CCC4)cc3)cc(O[C@H]3CCOC3)c2)n1`
6.4 ×10⁻⁶ cm/s

Record request: Papp A→B value, item `C[C@@H](CO)Oc1cc(Oc2ccc(C(=O)N3CCC3)cc2)cc(C(=O)Nc2cc[nH]n2)c1`
0.8 ×10⁻⁶ cm/s

Record request: Papp A→B value, item `COC[C@H](C)Oc1cc(Oc2ccc(C(=O)N3CCC3)cc2)cc(C(=O)Nc2ccn(C)n2)c1`
12 ×10⁻⁶ cm/s

Record request: Papp A→B value, item `Cc1nsc(NC(=O)c2cc(Oc3ccc(C(=O)N4CCC4)cc3)cc(O[C@@H](C)CO)c2)n1`
5.2 ×10⁻⁶ cm/s

Record request: Papp A→B value, item COC[C@H](C)Oc1cc(Oc2cnc(C(=O)N3CCC3)cn2)cc(C(=O)Nc2cnc(C)cn2)c1 [AZD-1656]
35 ×10⁻⁶ cm/s

Record request: Papp A→B value, item `C[C@@H](CO)Oc1cc(Oc2ccc(C(=O)N3CCC3)cc2)cc(C(=O)Nc2ccn(C)n2)c1`
1.2 ×10⁻⁶ cm/s

Record request: Papp A→B value, item `Cn1ccc(NC(=O)c2cc(Oc3ccc(C(=O)N4CCC4)cc3)cc(OC(CF)CF)c2)n1`
7 ×10⁻⁶ cm/s

###

system_tested: Hexokinase-4 (Homo sapiens, UniProt P35557)
Sequence (P35557 whole entry): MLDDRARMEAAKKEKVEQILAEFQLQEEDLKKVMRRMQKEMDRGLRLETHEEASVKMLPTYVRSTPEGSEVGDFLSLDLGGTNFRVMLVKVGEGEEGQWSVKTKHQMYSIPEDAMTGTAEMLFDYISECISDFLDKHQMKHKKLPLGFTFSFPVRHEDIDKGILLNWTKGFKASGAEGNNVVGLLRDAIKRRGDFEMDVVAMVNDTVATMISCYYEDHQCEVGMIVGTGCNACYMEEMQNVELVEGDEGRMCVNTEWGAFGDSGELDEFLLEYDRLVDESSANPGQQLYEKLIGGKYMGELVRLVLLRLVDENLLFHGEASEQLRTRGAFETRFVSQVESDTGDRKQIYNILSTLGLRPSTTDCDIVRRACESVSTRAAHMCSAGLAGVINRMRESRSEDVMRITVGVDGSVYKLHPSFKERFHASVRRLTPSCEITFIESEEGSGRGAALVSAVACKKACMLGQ
experimental_details: […] of recombinant human pancreatic glucokinase by G-6-P dehydrogenase assay
Mark TRUE only for EC50 values smaller than 50 nM; exact matches and larger values are FALSE.

Strictly below 50 nM: is that where EC50 of `Cn1ccc(NC(=O)c2cc(Oc3ccc(C(=O)N4CCC4)cc3)cc(OC3CCOCC3)c2)n1` sits?
FALSE

Strictly below 50 nM: is that where EC50 of `CC(C)Oc1cc(Oc2ccc(C(=O)N3CCC3)cc2)cc(C(=O)Nc2ccn(C)n2)c1` sits?
FALSE

Strictly below 50 nM: is that where EC50 of `C[C@@H](CO)Oc1cc(Oc2ccc(C(=O)N3CCC3)cc2)cc(C(=O)Nc2cc[nH]n2)c1` sits?
FALSE

Strictly below 50 nM: is that where EC50 of `CCn1ccc(NC(=O)c2cc(Oc3ccc(C(=O)N4CCC4)cc3)cc(O[C@@H](C)CO)c2)n1` sits?
TRUE

Strictly below 50 nM: is that where EC50 of `Cc1nsc(NC(=O)c2cc(Oc3ccc(C(=O)N4CCC4)cc3)cc(O[C@@H](C)CO)c2)n1` sits?
TRUE

###

experimental_details: Oral bioavailability in rat
Assay type: ADME, organism-based
condition_info: in vivo
experimental_readout: bioavailability (%)
Response body: numeric value in %, unit text excluded.

Record request: bioavailability value, item `COC[C@H](C)Oc1cc(Oc2cnc(C(=O)N3CCC3)cn2)cc(C(=O)Nc2cnc(C)cn2)c1`
100

###

experimental_details: Volume of distribution at steady state in dog
Type: ADME, organism-based, Canis lupus familiaris
condition_info: in vivo, read-out: Vdss
experimental_readout: Vd (L/kg)
Response body: numeric value in L/kg, unit text excluded.

Record request: Vd value, item COC[C@H](C)Oc1cc(Oc2cnc(C(=O)N3CCC3)cn2)cc(C(=O)Nc2cnc(C)cn2)c1 [AZD-1656]
1.5

###

experimental_details: Clearance in rat
Format: ADME, organism-based
condition_info: in vivo
experimental_readout: clearance
Report as: number unit

Record request: clearance value, item `COC[C@H](C)Oc1cc(Oc2cnc(C(=O)N3CCC3)cn2)cc(C(=O)Nc2cnc(C)cn2)c1`
16 mL/min/kg

###

experimental_details: Crystalline solubility of the compound
Type: physicochemical
solubility thermodynamic vs 20 µM: at or above is Satisfied, below is Not satisfied.

Determine whether this compound has solubility thermodynamic no lower than 20 µM: `CCn1ccc(NC(=O)c2cc(Oc3ccc(C(=O)N4CCC4)cc3)cc(O[C@@H](C)CO)c2)n1`
Satisfied

Determine whether this compound has solubility thermodynamic no lower than 20 µM: `C[C@@H](CO)Oc1cc(Oc2ccc(C(=O)N3CCC3)cc2)cc(C(=O)Nc2ccn(C)n2)c1`
Satisfied

Determine whether this compound has solubility thermodynamic no lower than 20 µM: `CC(C)n1ccc(NC(=O)c2cc(Oc3ccc(C(=O)N4CCC4)cc3)cc(O[C@@H](C)CO)c2)n1`
Satisfied

Determine whether this compound has solubility thermodynamic no lower than 20 µM: COC[C@H](C)Oc1cc(Oc2cnc(C(=O)N3CCC3)cn2)cc(C(=O)Nc2cnc(C)cn2)c1 [AZD-1656]
Satisfied

Determine whether this compound has solubility thermodynamic no lower than 20 µM: `Cc1nsc(NC(=O)c2cc(Oc3ccc(C(=O)N4CCC4)cc3)cc(O[C@@H](C)CO)c2)n1`
Not satisfied

Determine whether this compound has solubility thermodynamic no lower than 20 µM: `COC[C@H](C)Oc1cc(Oc2ncc(C(=O)N3CCC3)cc2Cl)cc(C(=O)Nc2cnc(C)cn2)c1`
Not satisfied

Determine whether this compound has solubility thermodynamic no lower than 20 µM: `Cn1ccc(NC(=O)c2cc(Oc3ccc(C(=O)N4CCC4)cc3)cc(OC(CF)CF)c2)n1`
Not satisfied

Determine whether this compound has solubility thermodynamic no lower than 20 µM: `CC(C)Oc1cc(Oc2ccc(C(=O)N3CCC3)cc2)cc(C(=O)Nc2ccn(C)n2)c1`
Satisfied

Determine whether this compound has solubility thermodynamic no lower than 20 µM: `C[C@@H](CO)Oc1cc(Oc2ccc(C(=O)N3CCC3)cc2)cc(C(=O)Nc2nccs2)c1`
Not satisfied

Determine whether this compound has solubility thermodynamic no lower than 20 µM: `COC[C@H](C)Oc1cc(Oc2ccc(C(=O)N3CCC3)cc2)cc(C(=O)Nc2ccn(C)n2)c1`
Satisfied

Determine whether this compound has solubility thermodynamic no lower than 20 µM: `COC[C@H](C)Oc1cc(Oc2ccc(C(=O)N3CCC3)cc2)cc(C(=O)Nc2cnc(C)cn2)c1`
Satisfied

Determine whether this compound has solubility thermodynamic no lower than 20 µM: `COC[C@H](C)Oc1cc(Oc2ccc(C(=O)N3CCC3)nc2)cc(C(=O)Nc2cnc(C)cn2)c1`
Satisfied

Determine whether this compound has solubility thermodynamic no lower than 20 µM: `Cn1ccc(NC(=O)c2cc(Oc3ccc(C(=O)N4CCC4)cc3)cc(O[C@H]3CCOC3)c2)n1`
Satisfied

Determine whether this compound has solubility thermodynamic no lower than 20 µM: `Cn1ccc(NC(=O)c2cc(Oc3ccc(C(=O)N4CCC4)cc3)cc(OC3CCOCC3)c2)n1`
Satisfied

Determine whether this compound has solubility thermodynamic no lower than 20 µM: `C[C@@H](CO)Oc1cc(Oc2ccc(C(=O)N3CCC3)cc2)cc(C(=O)Nc2cc[nH]n2)c1`
Satisfied

Determine whether this compound has solubility thermodynamic no lower than 20 µM: `Cc1cnc(NC(=O)c2cc(Oc3ccc(C(=O)N4CCC4)cc3)cc(O[C@@H](C)CO)c2)cn1`
Not satisfied

###

experimental_details: Volume of distribution at steady state in rat
Format: ADME, organism-based
condition_info: in vivo, read-out: Vdss
experimental_readout: Vd (L/kg)
Response body: numeric value in L/kg, unit text excluded.

Record request: Vd value, item `COC[C@H](C)Oc1cc(Oc2cnc(C(=O)N3CCC3)cn2)cc(C(=O)Nc2cnc(C)cn2)c1`
0.5

###

system_tested: Hexokinase-4 (Homo sapiens, UniProt P35557)
experimental_details: […] of recombinant human pancreatic glucokinase by G-6-P dehydrogenase assay
experimental_readout: EC50 (nM)
Response body: numeric value in nM, unit text excluded.

Record request: EC50 value, item `C[C@@H](CO)Oc1cc(Oc2ccc(C(=O)N3CCC3)cc2)cc(C(=O)Nc2nccs2)c1`
32

Record request: EC50 value, item `COC[C@H](C)Oc1cc(Oc2ccc(C(=O)N3CCC3)nc2)cc(C(=O)Nc2cnc(C)cn2)c1`
36

Record request: EC50 value, item `COC[C@H](C)Oc1cc(Oc2ccc(C(=O)N3CCC3)cc2)cc(C(=O)Nc2ccn(C)n2)c1`
37
